molecular target: Full-length human MNK2 (Homo sapiens, UniProt Q9HBH9, T379D); test: MNK2 biochemical IC50 assay (Caliper mobility shift)
Sequence (Q9HBH9 whole entry T379D): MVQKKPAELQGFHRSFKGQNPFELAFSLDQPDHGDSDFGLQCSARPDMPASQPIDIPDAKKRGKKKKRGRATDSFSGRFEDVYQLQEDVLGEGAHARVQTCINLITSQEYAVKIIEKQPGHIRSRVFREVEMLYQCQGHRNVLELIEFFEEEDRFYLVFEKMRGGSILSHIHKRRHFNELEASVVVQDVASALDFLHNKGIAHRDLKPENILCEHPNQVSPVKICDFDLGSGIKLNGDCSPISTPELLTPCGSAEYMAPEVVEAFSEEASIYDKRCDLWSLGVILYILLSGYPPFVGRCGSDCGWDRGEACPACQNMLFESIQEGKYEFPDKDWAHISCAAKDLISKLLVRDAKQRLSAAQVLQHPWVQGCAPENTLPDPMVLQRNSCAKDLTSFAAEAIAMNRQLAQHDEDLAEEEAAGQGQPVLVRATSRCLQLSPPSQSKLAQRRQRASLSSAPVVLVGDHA
REPORTED PROPERTY: IC50 (nM)

mol=CC(C)Oc1cc(F)ccc1Nc1ncnc2cc(C(=O)NCCCN(C)C)n(C)c12 reported_property=IC50 measured=39.8
mol=Fc1ccc2c(c1)CCN2c1ncnc2cc[nH]c12 reported_property=IC50 measured=31.6
mol=Cn1ccc2ncnc(Nc3ccc(F)cc3OC3CC3)c21 reported_property=IC50 measured=200
mol=COCCn1ccc2ncnc(Nc3ccc(F)cc3OC(C)C)c21 reported_property=IC50 measured=2000
mol=Cc1ccc(Nc2ncnc3ccn(C)c23)c(OC(C)C)c1 reported_property=IC50 measured=1260
